The measured values listed here are drawn from ChEMBL document CHEMBL4689842.

I'd be grateful if you could share measured Population Tubulin-Different-Phenotype (%) for these entries.
# Test system: U2OS
# test: Multiplex assay against U2OS
# Type: toxicity, cell-based
# experimental-setup: human, 48 h, 10 µM, compound concentration 10 uM, replicate 2
One number for each entry, in %.

Example entries begin here.
1. CN1CCN(c2ccc(OC(F)(F)F)c(Nc3ncc4c(n3)-c3c(c(C(N)=O)nn3CCO)CC4)c2)CC1 | 57
2. CC(C)NCC(O)COc1ccc(CCOCC2CC2)cc1.Cl (stereo not drawn) [BETAXOLOL HYDROCHLORIDE] | 25
3. CN1CCC[C@@H]1CCO[C@](C)(c1ccccc1)c1ccc(Cl)cc1.O=C(O)/C=C/C(=O)O [CLEMASTINE FUMARATE] | 55
4. CCn1c(=O)c(-c2ccc(Cl)cc2Cl)cc2cnc(Nc3ccc(N4CCNCC4)c(F)c3)nc21 | 91

Below are some compounds; for each one, tell me its Population Tubulin-Different-Phenotype (%).
1. NC(=O)Nc1cc(-c2cccc(F)c2)sc1C(=O)N[C@H]1CCCNC1
2. CCOCCn1cc(C(=O)Nc2ccc(-n3nc(-c4cccnc4)cc3C(F)(F)F)cn2)ccc1=O

Reply |
1: 96; 2: 40

Each of the following entries comes with a recorded value; kindly state Population Tubulin-Different-Phenotype (%) for each.
1. Cc1[nH]c(/C=C2\C(=O)Nc3ccc(S(=O)(=O)N(C)c4cccc(Cl)c4)cc32)c(C)c1C(=O)N1CCN(C)CC1
2. CN1CCN(CCOc2cc(OC3CCOCC3)c3c(Nc4c(Cl)ccc5c4OCO5)ncnc3c2)CC1

Reply |
1. 100
2. 90

###

# System: Fibroblast
# test: Multiplex assay against human fibroblast
# Type: toxicity, cell-based
# experimental-setup: 24 h, 1 µM, compound concentration 1 uM, replicate 2
attribute-measured: Population Fragmented Nuclei (%)
Numbers only, in %.

Worked examples follow.
1) OC1(c2ccc(Cl)cc2)CCN(Cc2c[nH]c3ccccc23)CC1 | 5
2) Cc1c(-c2ccc(O)cc2)n(Cc2ccc(OCCN3CCCCCC3)cc2)c2ccc(O)cc12 | 8
3) CN1CCN(CCOc2cc(OC3CCOCC3)c3c(Nc4c(Cl)ccc5c4OCO5)ncnc3c2)CC1 | 14
4) C=CC(=O)Nc1cc2c(Nc3ccc(F)c(Cl)c3)ncnc2cc1OCCCN1CCOCC1.Cl.Cl [CANERTINIB DIHYDROCHLORIDE] | 59
5) Cc1nc(-c2ccc(-c3ccc(C(=O)N4CCc5cc6c(cc54)C4(CCN(C)CC4)CO6)cc3)c(C)c2)no1 | 15

Give measured Population Fragmented Nuclei (%) for every item shown.
1. CNc1nc(NCc2ccc(NS(C)(=O)=O)cc2Cl)cc(-c2ccccn2)n1
2. NC(=O)Nc1cc(-c2cccc(F)c2)sc1C(=O)N[C@H]1CCCNC1
3. Cc1csc2c(N[C@@H](C)CN3CCN(S(=O)(=O)c4ccc(Cl)c(Cl)c4)CC3)ncnc12
4. COc1cccc([C@@H](C)NCCCc2ccccc2Cl)c1.Cl [TECALCET HYDROCHLORIDE]
5. Cl.N#Cc1ccc2[nH]cc(CCCCN3CCN(c4ccc5oc(C(N)=O)cc5c4)CC3)c2c1 [VILAZODONE HYDROCHLORIDE]
6. C=CC(=O)Nc1ccc2ncnc(Nc3ccc(OCc4cccc(F)c4)c(Cl)c3)c2c1.Cc1ccc(S(=O)(=O)O)cc1
7. CN1CCCC(n2nc(Cc3ccc(Cl)cc3)c3ccccc3c2=O)CC1.Cl (configuration not stated) [AZELASTINE HYDROCHLORIDE]

Reply |
8
40
11
8
15
4
7

Each compound below has a recorded value; state its Population Fragmented Nuclei (%).
1. C[C@@]1(C(=O)Nc2ccc(F)nc2)CCCN1c1nc(Nc2cc(C3CC3)n[nH]2)c2cccn2n1
2. c1cn2cc(-c3ccc4cn[nH]c4c3)nc(Nc3ccc(N4CCOCC4)cc3)c2n1

Reply |
[65, 14]

Go through the items and report each one's Population Fragmented Nuclei (%).
1. Cc1nc(-c2cn3c(n2)-c2ccc(-c4cnn(C(C)(C)C(N)=O)c4)cc2OCC3)n(C(C)C)n1
2. CN(C)CC#Cc1ccc(OCCCc2sc(N3CCc4cccc(C(=O)Nc5nc6ccccc6s5)c4C3)nc2C(=O)O)c(F)c1
3. COc1ncc(-c2ccc3nccc(-c4ccnnc4)c3c2)cc1NS(=O)(=O)c1ccc(F)cc1F

Reply |
[62, 36, 43]
